Target: recombinant soluble tissue factor and recombinant human factor VIIa (TF-VIIa) (Homo sapiens)
Construct: conversion of coagulation factor VII to VIIa by Xa; purchased American Diagnostica, Greenwich Conn; host or cells: VIIa purchased; soluble TF made in house in E. coli
Sequence (P08709 61-212 limits assumed): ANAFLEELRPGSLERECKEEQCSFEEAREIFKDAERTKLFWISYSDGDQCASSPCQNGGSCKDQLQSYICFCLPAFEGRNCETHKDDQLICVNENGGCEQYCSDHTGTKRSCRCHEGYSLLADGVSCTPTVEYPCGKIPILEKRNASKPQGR
Sequence (P08709 213-466 limits assumed): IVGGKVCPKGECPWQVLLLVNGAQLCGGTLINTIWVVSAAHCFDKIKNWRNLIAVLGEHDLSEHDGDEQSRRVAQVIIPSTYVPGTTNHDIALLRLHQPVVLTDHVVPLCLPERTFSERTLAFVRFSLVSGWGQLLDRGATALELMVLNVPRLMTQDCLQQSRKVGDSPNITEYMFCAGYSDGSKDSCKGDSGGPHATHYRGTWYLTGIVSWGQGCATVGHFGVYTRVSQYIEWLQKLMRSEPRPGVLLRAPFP
Sequence (P13726 33-251 partner limits assumed): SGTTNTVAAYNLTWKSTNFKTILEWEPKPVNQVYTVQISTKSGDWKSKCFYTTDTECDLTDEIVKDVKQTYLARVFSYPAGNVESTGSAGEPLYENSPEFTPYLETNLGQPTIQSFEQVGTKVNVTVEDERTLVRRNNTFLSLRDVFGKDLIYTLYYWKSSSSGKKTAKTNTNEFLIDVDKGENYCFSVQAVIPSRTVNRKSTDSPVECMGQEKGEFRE
Assay: TF-VIIa Assay
Format: biochemical
Conditions: inhibitor at 100 µM
I'd be grateful if you could share measured % Inhibition TF-VIIa (100 µM) for these entries.
Answer in %, number only, no unit symbol.

Inquiry: Given COc1ccc(-c2c(Cl)nc(NCCc3cccc(Cl)c3)c(=O)n2CC(=O)NCCc2cccnc2)cc1 , state its recorded % Inhibition TF-VIIa (100 µM).
Reply text: 3

Inquiry: Given O=C(Cn1c(CCc2ccccc2)c(Cl)nc(NCCc2cccc(Cl)c2)c1=O)NCCc1ccncc1 , state its recorded % Inhibition TF-VIIa (100 µM).
Reply text: 0

Inquiry: Given O=C(Cn1c(-c2cccc(Cl)c2)c(Cl)nc(NCCc2ccccc2)c1=O)NCCc1cccnc1 [Example E-0089] , state its recorded % Inhibition TF-VIIa (100 µM).
Reply text: 3

Inquiry: Given O=C(Cn1c(-c2ccc(Cl)cc2)c(Cl)nc(NCc2ccccc2)c1=O)NCCc1ccncc1 [Example E-0017] , state its recorded % Inhibition TF-VIIa (100 µM).
Reply text: 0

Inquiry: Given O=C(Cn1c(-c2ccccc2)c(Cl)nc(NCCc2cccc(Cl)c2)c1=O)NCCc1ccncc1 , state its recorded % Inhibition TF-VIIa (100 µM).
Reply text: 0

Inquiry: Given O=C(Cn1c(-c2ccccc2)c(Cl)nc(NCCc2ccncc2)c1=O)NCCc1ccncc1 , state its recorded % Inhibition TF-VIIa (100 µM).
Reply text: 0

Inquiry: Given O=C(Cn1c(-c2cccc(Cl)c2)c(Cl)nc(NCCc2ccc(Cl)cc2)c1=O)NCCc1ccncc1 [Example E-0094] , state its recorded % Inhibition TF-VIIa (100 µM).
Reply text: 2

###

I'd be grateful if you could share measured % Inhibition Factor Xa (30 µM) for these entries.
Target: Human factor Xa (Homo sapiens, UniProt P00742)
Sequence (P00742 41-179 limits assumed): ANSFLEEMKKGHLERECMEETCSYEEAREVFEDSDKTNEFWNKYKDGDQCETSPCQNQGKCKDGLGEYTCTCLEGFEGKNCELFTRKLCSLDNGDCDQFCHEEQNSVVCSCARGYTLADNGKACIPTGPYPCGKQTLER
Sequence (P00742 235-488 limits assumed): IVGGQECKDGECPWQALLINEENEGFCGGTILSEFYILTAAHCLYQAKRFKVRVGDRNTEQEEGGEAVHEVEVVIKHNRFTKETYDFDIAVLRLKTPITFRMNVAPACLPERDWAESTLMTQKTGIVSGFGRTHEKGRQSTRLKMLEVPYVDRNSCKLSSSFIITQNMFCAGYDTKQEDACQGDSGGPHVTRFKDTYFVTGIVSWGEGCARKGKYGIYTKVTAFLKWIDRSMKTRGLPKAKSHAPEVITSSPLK
Test: Xa Assay
Assay type: biochemical
Design: purchased Enzyme Research Laboratories, South Bend Ind
Conditions: at 30 µM inhibitor
Your answer should be a number followed by the unit of measure.

Inquiry: Given N=C(N)c1ccc(CNC(=O)Cn2c(-c3ccc4c(c3)OCO4)c(Cl)nc(NCCN3CCOCC3)c2=O)cc1 , state its recorded % Inhibition Factor Xa (30 µM).
Reply text: 13%

Inquiry: Given N=C(N)c1ccc(CNC(=O)Cn2c(-c3cc(N)cc(N)c3)cnc(NC3CCC3)c2=O)cc1 , state its recorded % Inhibition Factor Xa (30 µM).
Reply text: 26%

Inquiry: Given CC(C)Nc1nc(Cl)c(-c2cccnc2)n(CC(=O)NCc2ccc(C(=N)N)cc2)c1=O , state its recorded % Inhibition Factor Xa (30 µM).
Reply text: 9%

Inquiry: Given N=C(N)c1ccc(CNC(=O)Cn2c(-c3ccccc3)c(Cl)nc(NCC3COc4ccccc4O3)c2=O)cc1 (stereo not shown) , state its recorded % Inhibition Factor Xa (30 µM).
Reply text: 4%

###

I'd be grateful if you could share measured pIC50 for these entries.
Target: recombinant soluble tissue factor and recombinant human factor VIIa (TF-VIIa) (Homo sapiens)
Construct: conversion of coagulation factor VII to VIIa by Xa; purchased American Diagnostica, Greenwich Conn; host or cells: VIIa purchased; soluble TF made in house in E. coli
Test: TF-VIIa Assay
Type: biochemical
Settings: read-out: IC50 TF-VIIa
Worth noting: pIC50 values are minus log10 of concentrations stated in mol/L.

Inquiry: Given CC(C)Nc1ncc(-c2cc(N)cc(N)c2)n(CC(=O)NCc2ccc(C(=N)N)cc2)c1=O [Example 121] , state its recorded pIC50.
Reply text: 8.02

Inquiry: Given N=C(NCc1ccccc1)c1ccc(CNC(=O)Cn2c(-c3cccc(N)c3)c(Cl)nc(NC3CCC3)c2=O)cc1 [Example 160] , state its recorded pIC50.
Reply text: 4.74

Inquiry: Given CC(C)Nc1nc(Cl)c(-c2cc(N)cc(C(=O)NCc3cccnc3)c2)n(CC(=O)NCc2ccc(C(=N)N)cc2)c1=O [Example 128-18] , state its recorded pIC50.
Reply text: 7.73

Inquiry: Given CC(C)Nc1nc(Cl)c(-c2cc(N)ccc2SCC(=O)O)n(CC(=O)NCc2ccc(C(=N)N)cc2)c1=O [Example 110] , state its recorded pIC50.
Reply text: 7.30

Inquiry: Given N=C(N)c1ccc(CNC(=O)Cn2c(-c3cc(N)nc(C(=O)O)c3)cnc(NC3CCC3)c2=O)cc1 [Example 120] , state its recorded pIC50.
Reply text: 7.00

Inquiry: Given CC(C)Nc1nc(Cl)c(-c2cc(N)cc(C(=O)NCc3ccccc3C(F)(F)F)c2)n(CC(=O)NCc2ccc(C(=N)N)cc2)c1=O [Example 128-11] , state its recorded pIC50.
Reply text: 7.94

Inquiry: Given CC(C)Nc1nc(Cl)c(-c2cc(N)cc(C(=O)NC(C)c3ccccc3)c2)n(CC(=O)NCc2ccc(C(=N)N)cc2)c1=O (centres unmarked) [Example 128-3] , state its recorded pIC50.
Reply text: 8.09

Inquiry: Given COC(=O)c1cc(N)cc(-c2c(Cl)nc(NC(C)C)c(=O)n2CC(=O)NCc2ccc(C(=N)N)cc2)c1 [Example 125] , state its recorded pIC50.
Reply text: 7.42

Inquiry: Given CC(C)Nc1nc(Br)c(-c2cccc(N)c2)n(CC(=O)NCc2ccc(C(=N)N)cc2)c1=O [Example 124] , state its recorded pIC50.
Reply text: 7.80

Inquiry: Given CC(C)Nc1nc(Cl)c(-c2cc(N)cc(C(=O)NCc3ccc(Br)cc3)c2)n(CC(=O)NCc2ccc(C(=N)N)cc2)c1=O [Example 128-8] , state its recorded pIC50.
Reply text: 7.17

Inquiry: Given CC(C)Nc1nc(Cl)c(-c2cc(N)cc(C(=O)NCc3cccc(C(F)(F)F)c3)c2)n(CC(=O)NCc2ccc(C(=N)N)cc2)c1=O [Example 128-13] , state its recorded pIC50.
Reply text: 7.31

Inquiry: Given N/N=C(/N)c1ccc(CNC(=O)Cn2c(-c3cccc(N)c3)c(Cl)nc(NC3CCC3)c2=O)cc1 [Example 148] , state its recorded pIC50.
Reply text: 5.15

Inquiry: Given N=C(N)c1ccc(CNC(=O)Cn2c(-c3cccc(C(=N)N)c3)c(Cl)nc(NC3CCC3)c2=O)cc1 [Example 114] , state its recorded pIC50.
Reply text: 6.42

Inquiry: Given N=C(N)c1ccc(CNCCn2c(-c3cccc(N)c3)c(Cl)nc(NC3CCC3)c2=O)cc1 [Example 139] , state its recorded pIC50.
Reply text: 5.33

###

Target: UniProtKB P00742
Test: Xa Assay
Format: biochemical
Parameters: purchased Enzyme Research Laboratories, South Bend Ind
Conditions: at 100 μM inhibitor
# cutoff 40% applies to inhibition at 100 µM; >= gives yes (1), < gives no (0)

Inquiry: inhibition at 100 µM >= 40% for CC(C)Nc1nc(Cl)c(-c2cc(N)cc(C(=O)NCc3cc(C(F)(F)F)cc(C(F)(F)F)c3)c2)n(CC(=O)NCc2ccc(C(=N)N)cc2)c1=O [Example 128-6] ?
Reply text: no (0)

Inquiry: inhibition at 100 µM >= 40% for CC(C)Nc1nc(Cl)c(-c2cc(N)cc(C(=O)NCc3cccc(C(F)(F)F)c3)c2)n(CC(=O)NCc2ccc(C(=N)N)cc2)c1=O [Example 128-13] ?
Reply text: no (0)

Inquiry: inhibition at 100 µM >= 40% for CC(C)Nc1nc(Cl)c(-c2cc(N)cc(C(=O)NCc3ccccc3C(F)(F)F)c2)n(CC(=O)NCc2ccc(C(=N)N)cc2)c1=O [Example 128-11] ?
Reply text: no (0)

Inquiry: inhibition at 100 µM >= 40% for N=C(N)c1ccc(CNC(=O)Cn2c(-c3cc(N)nc(C(=O)O)c3)cnc(NC3CCC3)c2=O)cc1 [Example 120] ?
Reply text: yes (1)

Inquiry: inhibition at 100 µM >= 40% for CC(C)Nc1nc(Cl)c(-c2cc(N)cc(C(=O)NC3CCCC3)c2)n(CC(=O)NCc2ccc(C(=N)N)cc2)c1=O [Example 128-16] ?
Reply text: no (0)

Inquiry: inhibition at 100 µM >= 40% for CC(C)Nc1nc(Cl)c(-c2cc(N)cc(C(=O)NCc3cccc(F)c3)c2)n(CC(=O)NCc2ccc(C(=N)N)cc2)c1=O [Example 128-12] ?
Reply text: no (0)

Inquiry: inhibition at 100 µM >= 40% for CC(C)CNC(=O)c1cc(N)cc(-c2c(Cl)nc(NC(C)C)c(=O)n2CC(=O)NCc2ccc(C(=N)N)cc2)c1 [Example 128-14] ?
Reply text: no (0)

Inquiry: inhibition at 100 µM >= 40% for COC(=O)c1cc(N)cc(-c2c(Cl)nc(NC(C)C)c(=O)n2CC(=O)NCc2ccc(C(=N)N)cc2)c1 [Example 125] ?
Reply text: no (0)

Inquiry: inhibition at 100 µM >= 40% for CC(C)Nc1nc(Cl)c(-c2cc(N)cc(C(=O)NC(C)(C)c3ccccc3)c2)n(CC(=O)NCc2ccc(C(=N)N)cc2)c1=O [Example 128-4] ?
Reply text: yes (1)

Inquiry: inhibition at 100 µM >= 40% for N/N=C(/N)c1ccc(CNC(=O)Cn2c(-c3cccc(N)c3)c(Cl)nc(NC3CCC3)c2=O)cc1 [Example 148] ?
Reply text: no (0)

Hello, the source for this data is patent US6908919B2, in case you need it.
